From: ChEMBL document CHEMBL1201862

Test system: U-251
test name: NCI tumour cell line growth inhibition, 48 h
Calls of active or inactive are those of the source. Rule as the data show it: active = GI50 up to about 1.1 µM and inactive = higher.
// classify into active, inactive

>  <compound>
COC(=O)[C@@](NC(=O)OCc1ccccc1)([C@H](C)O)C(F)(F)F

>  <answer label>
inactive

$$$$
>  <compound>
CC(C)Cn1cnc2c(SCc3ccccn3)nc(N)nc21

>  <answer label>
inactive

$$$$
>  <compound>
C=CCC12CC(=O)CCC1c1ccc(OC)cc1C2=O (stereo not given)

>  <answer label>
inactive

$$$$
>  <compound>
CS(=O)(=O)OCCCSCCSCCCOS(C)(=O)=O

>  <answer label>
inactive

$$$$
>  <compound>
CCCCOCCOC1=C(Cl)C(=O)c2c(O)ccc(O)c2C1=O

>  <answer label>
inactive

$$$$

What did the test return for "CC(C)(C)c1nc2c(o1)/C(=N\c1ccccc1)c1ccccc1C2=O" ?
inactive

For this compound, state the assay outcome: "COc1ccc(NC(=O)C(=O)Cc2nc3ccc(C(=O)c4ccccc4)cc3nc2O)c([N+](=O)[O-])c1"
inactive

Called result for "C1CSCC2(COC2)CSCCSCC2(COC2)CS1"
inactive

Which result was noted for this compound in the test: "CC(C)(C)c1cc(COc2c3sc(=S)sc3c(OCc3cc(C(C)(C)C)cc(C(C)(C)C)c3)c3sc(=S)sc23)cc(C(C)(C)C)c1"
inactive

Hi, do you know how "COc1ccc(/C=C(\C#N)c2nc3ccccc3c(=O)[nH]2)cc1" came out in this test?
inactive

Assay result, entry "CON(C)c1nc(N)c(C#N)c(C#N)c1C#N" — outcome?
inactive

Name the outcome recorded for "CC1(C)O[C@@H](CP(c2ccccc2)c2ccccc2)[C@H](CP(c2ccccc2)c2ccccc2)O1" in the assay.
inactive

Could you please tell me the result logged for "CC(=O)O[C@H]1C(=O)[C@@]2(C)[C@H]([C@H](OC(=O)c3ccccc3)[C@]3(O)C[C@H](OC(=O)[C@H](O)[C@@H](NC(=O)c4ccccc4)c4cccc(N(C)C)c4)C(C)=C1C3(C)C)[C@]1(OC(C)=O)CO[C@@H]1C[C@@H]2O" in this assay?
active

What outcome does the record of this test show for "COn1oc(=O)c2ccccc21" ?
inactive

Recorded call for CCCCCCCCCCCCCC(=O)OC1CC(=O)OC1CO (stereo not given) ?
inactive

For this compound, state the assay outcome: "Oc1cc(-c2cccs2)nc2cc3c(cc12)OCO3"
inactive

Entry "Cn1c2ccccc2c2c3c(=O)[nH][nH]c(=O)c3c3c4ccccc4n(C)c3c21" : call = ?
inactive

Tell me the recorded outcome of this test for "O=C(Nc1ccccc1)OCCN=c1c2ccccc2ccc2ccccc12" .
inactive

For O=[N+]([O-])c1ccc(Cl)c(C2CC(c3cccc4ccccc34)=Nc3ccccc3[S+]2[O-])c1 (stereo not given) , what call appears in the results of this test?
inactive

// return assay outcome for CCOC(=O)CC1(c2cccc3ccccc23)OC(=O)c2ccccc21 (stereo not given)
inactive
